System: guinea pigs
TEST_DETAILS: Infiltration anesthetic effects, intracutaneous injection in guinea pigs
Format: in vivo
TEST_CONTEXT: 0.2 ml of 0.5% by weight solution
REPORTED_PROPERTY: Infiltration anesthesia duration (min)
Provide the reading as a plain figure in min.

Q: Using known records, supply Infiltration anesthesia duration for CCN(CC)CC(=O)Nc1c(C)cccc1C [Lidocaine, reference compound]
A: 25

Q: Using known records, supply Infiltration anesthesia duration for CCCCN1CCCCC1COc1c(C)cccc1C (stereo not drawn)
A: 165

Q: Using known records, supply Infiltration anesthesia duration for CCCN1CCCCC1COc1c(C)cccc1C (stereo not drawn)
A: 175

Q: Using known records, supply Infiltration anesthesia duration for Cc1cccc(C)c1OCC1CCCCN1CCO (stereo not drawn)
A: 40

Q: Using known records, supply Infiltration anesthesia duration for Cc1ccc(OCC2CCCCN2C)c(C)c1 (stereo not drawn)
A: 35

Q: Using known records, supply Infiltration anesthesia duration for Cc1ccccc1OCC1CCCCN1C (stereo not drawn)
A: 55

###

TEST_DETAILS: in vivo
TEST_CONTEXT: mouse, sc
So I've got a bunch of compounds here, and I need their LD50 values.
Provide the reading as a plain figure in mg/kg.

Q: Using known records, supply LD50 for CCCCN1CCCCC1COc1c(C)cccc1C (stereo not shown) [Example 7]
A: 225

Q: Using known records, supply LD50 for Cc1cccc(C)c1OCC1CCCCN1 (stereo not shown) [Example 1, 2-[(2,6-xyloxy)methyl]piperidine]
A: 110

Q: Using known records, supply LD50 for Cc1ccccc1OCC1CCCCN1C (stereo not shown) [Example 11]
A: 300

Q: Using known records, supply LD50 for Cc1cccc(C)c1OCC1CCCCN1CCO (stereo not shown) [Example 12]
A: 220

Q: Using known records, supply LD50 for CC1CCCC(C)C1OCC1CCCCN1 (stereo not shown) [Example 3]
A: 180

Q: Using known records, supply LD50 for CC1CCCC(C)C1OCC1CCCCN1C (stereo not shown) [Example 4]
A: 350

Q: Using known records, supply LD50 for CCCN1CCCCC1COc1c(C)cccc1C (stereo not shown) [Example 6]
A: 200

Q: Using known records, supply LD50 for Cc1ccc(C)c(OCC2CCCCN2C)c1 (stereo not shown) [Example 9]
A: 400

Q: Using known records, supply LD50 for CCN1CCCCC1COc1c(C)cccc1C (stereo not shown) [Example 5]
A: 200

Q: Using known records, supply LD50 for Cc1ccc(OCC2CCCCN2C)c(C)c1 (stereo not shown) [Example 8]
A: 400

Q: Using known records, supply LD50 for Cc1cccc(C)c1OCC1CCCCN1C.Cl (stereo not shown) [Example 2]
A: 260

Q: Using known records, supply LD50 for CCCCN1CCCCC1C(=O)Nc1c(C)cccc1C (stereo not shown) [Bupivacaine, reference compound]
A: 50

Q: Using known records, supply LD50 for CN1CCCCC1COc1ccccc1 (stereo not shown) [Example 10]
A: 150

###

Test system: guinea pigs
TEST_DETAILS: Infiltration anesthetic effects, intracutaneous injection in guinea pigs
Type: in vivo
TEST_CONTEXT: 0.2 ml of 0.5% by weight solution
So I've got a bunch of compounds here, and I need their Infiltration anesthesia duration values.
Answer format: number, then unit.

Q: Using known records, supply Infiltration anesthesia duration for CC1CCCC(C)C1OCC1CCCCN1 (stereo not shown) [Example 3]
A: 35 min

Q: Using known records, supply Infiltration anesthesia duration for CN1CCCCC1COc1ccccc1 (stereo not shown) [Example 10]
A: 35 min

Q: Using known records, supply Infiltration anesthesia duration for Cc1cccc(C)c1OCC1CCCCN1 (stereo not shown) [Example 1, 2-[(2,6-xyloxy)methyl]piperidine]
A: 40 min

Q: Using known records, supply Infiltration anesthesia duration for Cc1ccc(C)c(OCC2CCCCN2C)c1 (stereo not shown) [Example 9]
A: 25 min

Q: Using known records, supply Infiltration anesthesia duration for CC1CCCC(C)C1OCC1CCCCN1C (stereo not shown) [Example 4]
A: 60 min

Q: Using known records, supply Infiltration anesthesia duration for Cc1cccc(C)c1OCC1CCCCN1C.Cl (stereo not shown) [Example 2]
A: 120 min

Q: Using known records, supply Infiltration anesthesia duration for CCN1CCCCC1COc1c(C)cccc1C (stereo not shown) [Example 5]
A: 70 min

###

TEST_DETAILS: Convulsive and lethal doses in rats, intravenous infusion
Format: in vivo
TEST_CONTEXT: rat, in vivo, iv; male rats, i.v. at 1.0 mg/kg/min; read-out: Convulsive dose
Define the label as Criterion met when TD50 is strictly less than 10 mg/kg and as Criterion not met in all remaining cases.

Q: Please determine if CCCCN1CCCCC1C(=O)Nc1c(C)cccc1C (stereo not drawn) [Bupivacaine, reference compound] is below 10 mg/kg in terms of TD50.
A: Criterion met

Q: Please determine if Cc1cccc(C)c1OCC1CCCCN1 (stereo not drawn) [Example 1, 2-[(2,6-xyloxy)methyl]piperidine] is below 10 mg/kg in terms of TD50.
A: Criterion not met

Q: Please determine if CCN1CCCCC1COc1c(C)cccc1C (stereo not drawn) is below 10 mg/kg in terms of TD50.
A: Criterion not met

Q: Please determine if CCCCN1CCCCC1COc1c(C)cccc1C (stereo not drawn) is below 10 mg/kg in terms of TD50.
A: Criterion not met

Q: Please determine if CCCN1CCCCC1COc1c(C)cccc1C (stereo not drawn) is below 10 mg/kg in terms of TD50.
A: Criterion not met

###

System: rats
TEST_DETAILS: Convulsive and lethal doses in rats, intravenous infusion
Format: in vivo
TEST_CONTEXT: male rats, i.v. at 1.0 mg/kg/min
Define the label as satisfied when Lethal dose is strictly less than 30 mg/kg and as not satisfied in all remaining cases.

Q: Please determine if CCCCN1CCCCC1COc1c(C)cccc1C (stereo not drawn) is below 30 mg/kg in terms of Lethal dose.
A: satisfied

Q: Please determine if Cc1cccc(C)c1OCC1CCCCN1 (stereo not drawn) [Example 1, 2-[(2,6-xyloxy)methyl]piperidine] is below 30 mg/kg in terms of Lethal dose.
A: not satisfied

Q: Please determine if CCN1CCCCC1COc1c(C)cccc1C (stereo not drawn) is below 30 mg/kg in terms of Lethal dose.
A: not satisfied

Q: Please determine if CCCCN1CCCCC1C(=O)Nc1c(C)cccc1C (stereo not drawn) [Bupivacaine, reference compound] is below 30 mg/kg in terms of Lethal dose.
A: satisfied

Q: Please determine if CCCN1CCCCC1COc1c(C)cccc1C (stereo not drawn) is below 30 mg/kg in terms of Lethal dose.
A: satisfied

Q: Please determine if Cc1cccc(C)c1OCC1CCCCN1C.Cl (stereo not drawn) is below 30 mg/kg in terms of Lethal dose.
A: not satisfied
